- assay_comment: in vitro
assay_metric: CC50 at 24 h (µM)
Give the value, in units of µM, as a plain number.

Ask: Tell me the measured CC50 at 24 h of CC(C)Oc1ccc(-c2coc3cc(OCc4ccccc4)cc(OC(C)C)c3c2=O)cc1 , please.
Reply: 22.7

Ask: Tell me the measured CC50 at 24 h of O=c1c(-c2ccc(O)cc2)coc2cc(OCc3ccccc3)cc(O)c12 , please.
Reply: 14.5

Ask: Tell me the measured CC50 at 24 h of O=c1c(-c2ccc(O)cc2)coc2cc(OCC3CO3)cc(O)c12 (stereo not drawn) , please.
Reply: 11.6

Ask: Tell me the measured CC50 at 24 h of CC(C)Oc1ccc(-c2coc3cc(OCc4ccccc4)cc(O)c3c2=O)cc1 , please.
Reply: 6.6

Ask: Tell me the measured CC50 at 24 h of O=c1c(-c2ccc(O)cc2)coc2cc(OCCO)cc(O)c12 , please.
Reply: 27.5

Ask: Tell me the measured CC50 at 24 h of C=CCOc1ccc(-c2coc3cc(OCc4ccccc4)cc(O)c3c2=O)cc1 , please.
Reply: 14.6
